# Tested on: TK-10 renal
# ASSAY_EXPLANATION: NCI tumour cell line growth inhibition, 48 h
For each record, write down the corresponding TGI.

Known TGI results, listed for orientation:
{"MOLECULE": "COc1ccc(/C=C/C(=O)OC2CC34CCNC35CC(OC5(OC)C2OC)c2ccc(OC)c(O)c24)cc1O (stereo not given)", "TGI": "> 100 µM"}
{"MOLECULE": "C[n+]1c(-c2ccc(/C=N\\Nc3ccnc(N/N=C/c4ccc(-c5cn6ccsc6[n+]5C)cc4)n3)cc2)cn2ccsc21", "TGI": "> 100 µM"}
{"MOLECULE": "COC(=O)C1C(=O)C(C(=O)OC)C2CCC1N2C (stereo not given)", "TGI": "> 100 µM"}

Give TGI for each listed item.
1. Nc1nc(N)c(N=Nc2ccccc2)c(=O)[nH]1
2. Nc1ccc(C2(c3ccc(N)cc3)C3CC4CC(C3)CC2C4)cc1

["> 100 µM", "32.2 µM"]

###

For each record, write down the corresponding TGI.
# Test system: NCI-H522 lung
# ASSAY_EXPLANATION: NCI tumour cell line growth inhibition, 48 h
One number for each entry, in µM.

Known TGI results, listed for orientation:
{"MOLECULE": "CS(=O)(=O)ON1C(=O)c2ccc(N)cc2C1=O", "RECORDED_VALUE": 43.2}
{"MOLECULE": "Cc1cc2c3c(nc4ccccc42)C(=O)c2cccnc2-c3n1", "RECORDED_VALUE": 0.315}
{"MOLECULE": "Cc1c(Br)c(Br)c2c3c1nc(N1CCNCC1)n3CCC2", "RECORDED_VALUE": 3.14}
{"MOLECULE": "Cc1cc2c(C(C)C)c(O)c(O)c(/C=N/O)c2c(O)c1-c1c(C)cc2c(C(C)C)c(O)c(O)c(/C=N/O)c2c1O", "RECORDED_VALUE": 5.47}
{"MOLECULE": "O=[N+]([O-])c1ccc(C2=NOC(c3ccccc3)N2C23CC4CC(CC(C4)C2)C3)cc1 (stereo unspecified)", "RECORDED_VALUE": 35.3}

Give TGI for each listed item.
1. Cc1ccc(/C=C(/C#N)n2nnc3cccc(F)c32)cc1
2. Cc1cc(NS(=O)(=O)c2ccc(-c3cnc(C4CC4)o3)cc2)ccc1Cl

1: 14.9; 2: 3.38

###

# Tested on: DU-145 prostate
# ASSAY_EXPLANATION: NCI tumour cell line growth inhibition, 48 h
For each record, write down the corresponding TGI.

{"COMPOUND": "O=C(O)C1CC[N-]CC1.O=C(O)C1CC[N-]CC1.[NH2-].[NH2-].[Pt+4]", "RECORDED_VALUE": "> 100 µM"}
{"COMPOUND": "Nc1nc2c(ncn2C2OC(CO)C(O)C2O)c(=O)o1 (configuration not stated)", "RECORDED_VALUE": "> 100 µM"}

Give TGI for each listed item.
1. CCN(CC)CCOc1ccc2c(-c3ccccc3)c(-c3ccc(OC)cc3)c(=O)oc2c1
2. O=C(c1ccc(Cl)c(Cl)c1)N(C(=S)OC12CC3CC(CC(C3)C1)C2)c1ccccc1
3. N=C1C(c2nc3ccccc3c(=O)[nH]2)=C(O)CN1c1cccc(Cl)c1
4. O=C1NC(=Nc2ccccc2Cl)N/C1=C\c1c(Cl)cccc1Cl
5. CC[C@]1(O)CC2CN(CCc3c([nH]c4ccccc34)C(C(=O)OC)(c3cc4c(cc3OC)N(C=O)[C@H]3[C@@](O)(C(=O)OC)[C@H](OC(C)=O)[C@]5(CC)[C@@H]6C[C@@H]6CN6CC[C@]43[C@@H]65)C2)C1 (some centres not stated)
6. NC(=S)NN=Cc1ccccc1OCc1cccc(COc2ccccc2C=NNC(N)=S)n1
7. CN(C)Cc1ccc(O)c(CN(C)C)n1

22.6 µM
> 100 µM
> 57.9 µM
> 100 µM
< 0.00325 µM
> 45.6 µM
> 100 µM

Give TGI for each listed item.
1. O=C(CCl)N1CCN(c2ccccn2)CC1
2. O=[N+]([O-])c1ccc(C2=NOC(c3ccccc3)N2C23CC4CC(CC(C4)C2)C3)cc1 (configuration not stated)
3. CN(C)/C=N/c1cc(=O)n(C)c(=O)n1C
4. COC(=O)CSc1cc(Cl)c(C)cc1S(=O)(=O)Nc1n[nH]c(N)n1

> 100 µM
95 µM
> 100 µM
> 10 µM

Give TGI for each listed item.
1. CN1CCOC1(C)c1ccccc1 (configuration not stated)
2. O=[N+]([O-])c1ccccc1S(=O)(=O)c1cccc2c1NCCC2

> 100 µM
> 100 µM

Give TGI for each listed item.
1. C=C1C(=O)O[C@H]2C(=O)[C@H](C)CCC/C(C)=C/CC[C@@]3(C)O[C@@H]3C[C@@H]12
2. O=C(O)c1cc(-c2ccc(-c3ccccc3)cc2)nc2cc3ccccc3cc12
3. O=C(Cn1c2ccc(Br)cc2c2nc3ccccc3nc21)NNC(=O)NC1CCCCC1
4. COC(=O)C(Cc1c(-c2[nH]c3ccccc3c2CC(NC(C)=O)C(=O)OC)[nH]c2ccccc12)NC(C)=O (configuration not stated)

1: 11.1 µM; 2: > 100 µM; 3: 86 µM; 4: > 100 µM

Give TGI for each listed item.
1. CC(=O)OC1CCn2c1nc1c2C(=O)C=C(N2CC2)C1=O (configuration not stated)
2. Cc1ccc(S(=O)(=O)NCCCSCCN)cc1
3. Cc1cc(N(C)c2ccccc2)nc(N(C)c2ccccc2)n1
4. CCc1nc(N)nc(N)c1-c1ccc(N2CCNCC2)c([N+](=O)[O-])c1
5. CN1C(=O)C(O)CC1c1ccccc1F (configuration not stated)

1: 12.7 µM; 2: > 100 µM; 3: > 100 µM; 4: > 100 µM; 5: > 100 µM

Give TGI for each listed item.
1. CC1CCC2C(C)C(OC(=O)CCC(=O)O)OC3OC4(C)CCC1C32OO4 (configuration not stated)
2. Cc1cc(NS(=O)(=O)c2ccc(-c3cnc(C4CC4)o3)cc2)ccc1Cl
3. COC(=O)NCCc1[nH]nc2c1C(=O)C=C(Nc1ccccc1OC)C2=O
4. Cc1cc2c3c(nc4ccccc42)C(=O)c2cccnc2-c3n1
5. CCc1n[nH]c(=O)n1-n1c(C)ccc1C
6. O=c1c2ccccc2nc(-c2ccccc2)n1/N=C/c1ccccc1[N+](=O)[O-]

["63.4 µM", "15.1 µM", "> 100 µM", "1.48 µM", "> 100 µM", "> 100 µM"]

Give TGI for each listed item.
1. COC(=O)C1C(=O)C(C(=O)OC)C2CCC1N2C (configuration not stated)
2. C=CCc1cc(O)ccc1O

1: > 100 µM; 2: > 100 µM
